Source of measurements: the supplement of paper PMC9112550

# Tested on: Escherichia coli TOP10;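 also: peptides expressed intracellularly from a pBAD plasmid library in pooled LB shake-flask culture, induced with 0.3% L-arabinose, DNA abundance read by NGS, three biological replicates, DESeq2 with apeglm shrinkage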
# Measurement notes: shrunken log2 fold change of peptide-encoding DNA abundance (4.5 h post-induction vs induction); higher = less antimicrobial activity (less host growth inhibition)
# Stated conditions: time post-induction: 4.5 h; library: site-saturation at positions 5, 18, 19, 20
Returns one of Condition met or Condition not met; Condition met when shrunken log2 fold change is >= -0.02.

# example entries with known answers
RRIRYRPPRLPRPRPRPMHTPRP | Condition not met
RRIRLRPPRLPRPRPRPLFLPRP | Condition not met
RRIRNRPPRLPRPRPRPHVIPRP | Condition not met
RRIRFRPPRLPRPRPRPQARPRP | Condition met
RRIRERPPRLPRPRPRPVYSPRP | Condition not met
RRIRGRPPRLPRPRPRPFYGPRP | Condition not met

Asked: In plain terms: is recorded shrunken log2 fold change at least -0.02 for "RRIRFRPPRLPRPRPRPYPIPRP" ?
Given back: Condition not met

Asked: Next: "RRIRCRPPRLPRPRPRPTCTPRP"
Given back: Condition not met

Asked: Next: "RRIRFRPPRLPRPRPRPFWHPRP"
Given back: Condition met

Asked: Next: "RRIRVRPPRLPRPRPRPSRVPRP"
Given back: Condition met

Asked: Next: "RRIRHRPPRLPRPRPRPFSEPRP"
Given back: Condition not met

Asked: Next: "RRIRKRPPRLPRPRPRPWPNPRP"
Given back: Condition met

Asked: Next: "RRIRFRPPRLPRPRPRPRGQPRP"
Given back: Condition met

Asked: Next: "RRIRIRPPRLPRPRPRPVCIPRP"
Given back: Condition not met

Asked: Next: "RRIRWRPPRLPRPRPRPFPEPRP"
Given back: Condition not met

Asked: Next: "RRIRIRPPRLPRPRPRPSPIPRP"
Given back: Condition not met

Asked: Next: "RRIRFRPPRLPRPRPRPDPGPRP"
Given back: Condition not met

Asked: Next: "RRIRNRPPRLPRPRPRPGENPRP"
Given back: Condition met

Asked: Next: "RRIRGRPPRLPRPRPRPGALPRP"
Given back: Condition met

Asked: Next: "RRIRGRPPRLPRPRPRPDHSPRP"
Given back: Condition met

Asked: Next: "RRIRCRPPRLPRPRPRPCTQPRP"
Given back: Condition not met

Asked: Next: "RRIRNRPPRLPRPRPRPNTDPRP"
Given back: Condition not met

Asked: Next: "RRIRIRPPRLPRPRPRPKNNPRP"
Given back: Condition not met
